All values here come from patent US6685617B1.

Measured IC50, listed per entry.
- tested on: α4β1 integrin (Jurkat cell adhesion to immobilized CS-1 derived peptide CLHPGEILDVPST) (Homo sapiens, UniProt P05556+P13612)
- Construct: 100 μl of Jurkat cells (2.5×10^6 cells/ml) in DMEM plus BSA
- Sequence (P13612 34-1032): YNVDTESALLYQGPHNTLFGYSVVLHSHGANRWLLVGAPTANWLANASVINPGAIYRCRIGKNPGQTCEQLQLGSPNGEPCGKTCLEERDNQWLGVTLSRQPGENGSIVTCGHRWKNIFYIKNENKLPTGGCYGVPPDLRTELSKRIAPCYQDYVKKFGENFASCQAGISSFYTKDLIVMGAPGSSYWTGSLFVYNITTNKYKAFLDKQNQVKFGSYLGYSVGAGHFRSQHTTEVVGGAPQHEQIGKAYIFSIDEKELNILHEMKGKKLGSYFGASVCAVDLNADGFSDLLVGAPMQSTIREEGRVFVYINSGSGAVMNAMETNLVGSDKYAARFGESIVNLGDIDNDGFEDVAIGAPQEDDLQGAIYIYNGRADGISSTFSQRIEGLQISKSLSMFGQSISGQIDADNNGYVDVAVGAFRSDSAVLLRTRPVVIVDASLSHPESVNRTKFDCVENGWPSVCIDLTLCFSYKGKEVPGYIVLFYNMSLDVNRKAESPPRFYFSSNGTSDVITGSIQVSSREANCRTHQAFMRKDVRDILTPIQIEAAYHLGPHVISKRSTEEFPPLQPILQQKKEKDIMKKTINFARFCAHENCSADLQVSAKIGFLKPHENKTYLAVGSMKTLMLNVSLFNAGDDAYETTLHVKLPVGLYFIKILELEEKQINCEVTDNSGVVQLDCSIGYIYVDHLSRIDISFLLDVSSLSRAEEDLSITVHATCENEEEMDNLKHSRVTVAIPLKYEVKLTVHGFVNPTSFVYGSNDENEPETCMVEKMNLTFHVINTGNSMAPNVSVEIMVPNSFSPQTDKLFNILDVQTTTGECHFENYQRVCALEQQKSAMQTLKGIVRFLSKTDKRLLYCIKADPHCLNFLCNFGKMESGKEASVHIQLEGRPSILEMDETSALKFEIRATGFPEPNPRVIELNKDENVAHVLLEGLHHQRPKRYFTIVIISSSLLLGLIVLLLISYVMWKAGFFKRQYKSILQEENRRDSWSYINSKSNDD
- Sequence (P05556 21-798): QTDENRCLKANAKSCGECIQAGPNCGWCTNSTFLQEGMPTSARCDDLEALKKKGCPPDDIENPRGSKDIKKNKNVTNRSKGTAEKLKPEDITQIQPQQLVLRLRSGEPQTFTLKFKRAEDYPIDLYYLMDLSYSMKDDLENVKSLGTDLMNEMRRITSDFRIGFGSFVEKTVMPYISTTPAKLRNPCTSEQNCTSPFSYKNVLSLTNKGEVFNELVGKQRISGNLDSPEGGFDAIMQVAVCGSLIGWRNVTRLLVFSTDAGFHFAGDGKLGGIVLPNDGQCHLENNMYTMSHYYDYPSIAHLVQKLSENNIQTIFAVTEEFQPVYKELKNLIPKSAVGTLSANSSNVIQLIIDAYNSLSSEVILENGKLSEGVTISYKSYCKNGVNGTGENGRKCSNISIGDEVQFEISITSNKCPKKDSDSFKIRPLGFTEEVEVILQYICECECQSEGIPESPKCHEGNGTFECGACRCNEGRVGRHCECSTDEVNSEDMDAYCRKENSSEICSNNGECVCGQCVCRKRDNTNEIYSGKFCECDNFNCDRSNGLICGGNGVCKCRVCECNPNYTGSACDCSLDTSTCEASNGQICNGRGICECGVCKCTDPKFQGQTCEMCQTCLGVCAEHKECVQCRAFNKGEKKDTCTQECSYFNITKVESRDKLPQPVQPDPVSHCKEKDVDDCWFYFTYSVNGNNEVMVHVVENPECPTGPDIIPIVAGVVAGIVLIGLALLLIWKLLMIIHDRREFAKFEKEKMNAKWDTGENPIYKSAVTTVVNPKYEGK
- test description: Jurkat-CS-1 assay
- condition: Jurkat cells on CS-1 peptide coated plates; read-out: JK/CS-1 (Jurkat CS-1 Assay IC50 value range)
Where a name gives a salt, the structure may show the parent alone.

Study these solved cases before continuing.
>>> endpoint_value("COC(=O)[C@H](Cc1ccc(NC(=O)c2c(Cl)cccc2Cl)cc1)NC(=O)[C@@H]1CSC(C)(C)N1C(=O)OC(C)(C)C (relative stereo)")
"≥ 0.75 µM"
>>> endpoint_value("O=C(Nc1ccc(C[C@H](NC(=O)[C@@H]2CCN2)C(=O)O)cc1)c1c(Cl)cccc1Cl [Example 144, Trifluoroacetic acid Salt]")
"0.05 to 0.75 µM"
>>> endpoint_value("CN(CCc1ccccn1)C(=O)N1CSC[C@@H]1C(=O)N[C@@H](Cc1ccc(OCc2c(Cl)cccc2Cl)cc1)C(=O)O (relative stereo)")
"≥ 0.75 µM"
>>> endpoint_value("CC(C)(C)OC(=O)N1CSC[C@@H]1C(=O)N[C@@H](Cc1ccc(N(C(=O)c2c(Cl)cccc2Cl)C(=O)c2c(Cl)cccc2Cl)nc1)C(=O)O")
"≥ 0.75 µM"
>>> endpoint_value("COC(=O)[C@H](Cc1ccc(OCc2c(Cl)cccc2Cl)cc1)NC(=O)[C@H]1CSCN1C(=O)OCc1ccccn1 (relative stereo)")
"≥ 0.75 µM"

Dear colleague, please send me the reported IC50 for O=C(O)/C=C\C(=O)N1CCCC(C(=O)N[C@@H](Cc2ccc(NC(=O)c3c(Cl)cccc3Cl)cc2)C(=O)O)C1 (stereo partly shown) when you can. ≥ 0.75 µM

Dear colleague, please send me the reported IC50 for COC(=O)[C@H](Cc1ccc(NC(=O)c2c(Cl)cccc2Cl)cc1)NC(=O)[C@H]1CSCN1C(=O)N(C)CCc1ccccn1 when you can. 0.05 to 0.75 µM

Dear colleague, please send me the reported IC50 for O=C(O)c1ccc(NC(=O)N2CCC[C@H]2C(=O)N[C@@H](Cc2ccc(NC(=O)c3c(Cl)cccc3Cl)cc2)C(=O)O)cc1 when you can. 0.05 to 0.75 µM
